assay: qHTS of pediatric cancer cell lines to identify multiple opportunities for drug repurposing: Confirmatory screen for control Hh wild type fibroblast cells (AID 1347121); details: viability qHTS; series mostly up to 45.9 µM; also: nearly all actives have a fitted effect of over 70% in size
Inconclusive results are not listed. The source made the active and inactive calls. Calls follow the shape of the dose curve; as a rule, active = well fitted cell-killing curve with a large enough effect; inconclusive = small, poorly fitted or top-dose-only effect, or effect the other way; inactive = flat fitted curve, though single readings scatter.
Choose the fitting class; nothing outside yes = active, no = inactive is accepted.

Q: Given "CC[C@]1(O)C[C@@H]2CN(CCc3c([nH]c4ccccc34)[C@@](C(=O)OC)(c3cc4c(cc3OC)N(C)[C@H]3[C@@](O)(C(=O)OC)[C@H](OC(C)=O)[C@]5(CC)C=CCN6CC[C@]43[C@@H]65)C2)C1" , state the outcome it received in this test.
A: no

Q: Request: "CC[C@@H]1C=C(C)C[C@H](C)C[C@H](OC)[C@H]2O[C@@](O)(C(=O)C(=O)N3CCCC[C@@H]3C(=O)O[C@H](C(C)=C[C@@H]3CC[C@H](Cl)[C@H](OC)C3)[C@H](C)[C@@H](O)CC1=O)[C@H](C)C[C@H]2OC"
A: no

Q: Request: "CC(=O)O[C@]1(C(C)=O)CC[C@@H]2[C@@H]3C[C@H](C)C4=CC(=O)CC[C@]4(C)[C@H]3CC[C@@]21C"
A: no

Q: Request: "Cc1[nH]c(C=C2C(=O)Nc3ccc(S(=O)(=O)Cc4c(Cl)cccc4Cl)cc32)c(C)c1C(=O)N1CCC[C@H]1CN1CCCC1"
A: yes

Q: Request: "COc1cc2ncnc(Nc3ccc(F)c(Cl)c3)c2cc1OCCCN1CCOCC1"
A: yes

Q: Request: "CO[C@H]1C=CC=C(C)C(=O)NC2=CC(=O)C(NCCN(C)C)=C(C[C@@H](C)C[C@H](OC)[C@@H](O)[C@@H](C)C=C(C)[C@@H]1OC(N)=O)C2=O"
A: no

###

test system: Es-2; assay: Primary qHTS to identify gynecologic anti-cancer compounds using libraries of approved drugs and bioactive compounds (AID 1345084); details: Gynecologic cancer cell panel viability, ATPlite luminescence, 48 h; series mostly up to 57.5 µM; also: nearly all actives have a fitted effect of over 55% in size
Inconclusive results are not listed. Calls of active or inactive are those of the source. Calls follow the shape of the dose curve; as a rule, active = well fitted cell-killing curve with a large enough effect; inconclusive = small, poorly fitted or top-dose-only effect, or effect the other way; inactive = flat fitted curve, though single readings scatter.
quantity name: outcome

Solved entries:
1) COCCOC(=O)C1=C(C)NC2=C(C(=O)CC(c3ccccc3OC)C2)C1c1cccc(O)c1 (stereo unspecified): inactive
2) Cc1cccc(Nc2nc(-c3ccncc3)cs2)c1: inactive
3) CN(C)CCC(c1ccccc1)c1ccccn1 (stereo unspecified): inactive
4) CCN(CC)CCOC(=O)c1ccc(N)cc1: inactive
5) CC(C)C(=O)Oc1ccc(CO)cc1[C@H](CCN(C(C)C)C(C)C)c1ccccc1: inactive

Q: What measured outcome goes with "COc1cc2nc(-c3ccc(N4CCN(C)CC4)cc3)nc(NCCN3CCOCC3)c2cc1OC" ?
A: inactive

###

tested on: CRL-7250; experiment: Cytotoxic Profiling of Annotated Libraries Using Quantitative High-Throughput Screening (AID 1296008); conditions: Five cell lines viability, CellTiter-Glo ATP luminescence, 48-72 h; also: nearly all actives have a fitted effect of over 60% in size
Results filed as inconclusive are left out. Calls of active or inactive are those of the source. Calls follow the shape of the dose curve; as a rule, active = well fitted inhibition curve with a large enough effect; inconclusive = small, poorly fitted or top-dose-only effect; inactive = flat fitted curve, though single readings scatter.
Choose the fitting class; nothing outside 1 for active, 0 for inactive is accepted.

Q: Given "CC(C)[C@H](CO)Nc1nc(Nc2ccc(C(=O)O)c(Cl)c2)c2ncn(C(C)C)c2n1" , state the outcome it received in this test.
A: 0

Q: Request: "CN(C)C1CCN(C(=O)c2ccc(NC(=O)Nc3nc(N4CCOCC4)nc(N4CCOCC4)n3)cc2)CC1"
A: 1

Q: Request: "CCCNC(=O)NS(=O)(=O)c1ccc(Cl)cc1"
A: 0

Q: Request: "CCOC(=O)O[C@]1(C(=O)OCCl)CC[C@@H]2[C@H]3CCC4=CC(=O)C=C[C@]4(C)[C@@H]3[C@@H](O)C[C@@]21C"
A: 0

Q: Request: "C[C@@H](O)[C@H]1C(=O)N2C(C(=O)O)=C(S[C@@H]3CN[C@H](C(=O)N(C)C)C3)[C@H](C)[C@H]12"
A: 0

Taken from PubChem BioAssay (NCATS).
